- System: full-length GRB2, KD1 (NSH3) (Homo sapiens)
- Construct: further corroborated by our ITC analysis of the full-length GRB2; His6 (N, cleaved yes); TEV protease cleavage site (N, cleaved yes); made in house; host or cells: Escherichia coli BL21 (DE3) pLysS
- Sequence (P62993 whole entry): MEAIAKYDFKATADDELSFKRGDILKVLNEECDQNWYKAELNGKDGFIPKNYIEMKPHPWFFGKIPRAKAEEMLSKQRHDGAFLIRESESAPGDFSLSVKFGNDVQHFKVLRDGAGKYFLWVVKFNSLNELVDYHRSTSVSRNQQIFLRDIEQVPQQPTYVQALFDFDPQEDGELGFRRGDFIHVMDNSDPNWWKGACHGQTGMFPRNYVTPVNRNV
- Experiment Summary: ITC of full-length GRB2 with SOS1 PRMs, KD1
- Assay type: binding
No end group written: not given here.
Recorded Endpoint: Kd (µM)
State just the number; it will be interpreted in µM.

The recorded Kd for PKPLPRFPKK [S2] is 65.1

The recorded Kd for ESPPLLPPREPV [S6] is 40.1

The recorded Kd for IAGPPVPPRQST [S9] is 35.6

The recorded Kd for PSPHGTRRHLPSPP [S8] is 123

The recorded Kd for DSPPAIPPRQPT [S5] is 15.9
